The reported numbers originate from paper PMC4403932.

Target: PCAF (Homo sapiens, UniProt Q92831)
Construct: representative BRDs from other structural subfamilies (family I, PCAF); made in house
Experiment: Protein stability (thermal) shift assay, PCAF
Assay type: binding
Conditions: compound 10 μM, protein 2 μM; average of triplicate
Result Type: ΔTm at 10 µM

Query: Sample `COc1ccc(Br)cc1-c1nc(Cl)nc2[nH]cnc12` — what was its ΔTm at 10 µM?
Response: -0.4 °C

Query: Sample `COc1cccc(OCC(C)C)c1-c1nc(N)nc2[nH]cnc12` — what was its ΔTm at 10 µM?
Response: -0.121 °C

Query: Sample `Clc1nc(Cl)c2nc[nH]c2n1` — what was its ΔTm at 10 µM?
Response: -0.8 °C

Query: Sample `CCCCOc1cc(Br)cc(-c2nc(N)nc3[nH]cnc23)c1` — what was its ΔTm at 10 µM?
Response: 1.3 °C

Query: Sample `Nc1nc(-c2ccccc2)c2nc[nH]c2n1` — what was its ΔTm at 10 µM?
Response: 1.3 °C

Query: Sample `COc1ccccc1-c1nc(N)nc2[nH]cnc12` — what was its ΔTm at 10 µM?
Response: -0.7 °C

Query: Sample `Nc1nc(-c2cc(Br)cc3c2OCC3)c2nc[nH]c2n1` — what was its ΔTm at 10 µM?
Response: 0.9 °C

Query: Sample `COc1ccc(Br)cc1-c1nc(N)nc2c1ncn2C` — what was its ΔTm at 10 µM?
Response: 0.9 °C

Query: Sample `COc1ccc(Cl)cc1-c1nc(N)nc2[nH]cnc12` — what was its ΔTm at 10 µM?
Response: -0.9 °C

====

Target: BRD4(1) (Homo sapiens, UniProt O60885)
Construct: made in house
Assay: Isothermal titration calorimetry, BRD4(1)
Assay type: binding
Conditions: ITC; read-out: dissociation constant
I'd appreciate it if you could supply Kd values for the items below.
Could you give the number and then its unit, please?

Query: Sample `COc1ccc(Cl)cc1-c1nc(N)nc2[nH]cnc12` — what was its Kd?
Response: 2.04 µM

Query: Sample `Nc1nc(-c2ccccc2)c2nc[nH]c2n1` — what was its Kd?
Response: 12 µM

====

Biological target: BRD3(1) (Homo sapiens)
Construct: Fragments were tested in a thermal shift assay against bromodomains of the BET subfamily; made in house
Sequence (Q15059 34-140 limits assumed): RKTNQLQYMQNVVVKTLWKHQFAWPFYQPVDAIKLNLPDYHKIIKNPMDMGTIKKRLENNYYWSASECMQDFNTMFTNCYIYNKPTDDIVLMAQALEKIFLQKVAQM
Test: Protein stability (thermal) shift assay, BRD3(1)
Format: binding
Conditions: compound 10 μM, protein 2 μM; average of triplicate
Rule: measured ΔTm at 10 µM below 1 °C gets true (1); anything equal to or greater than 1 °C gets false (0).

Query: Criterion: ΔTm at 10 µM strictly below 1 °C. Is it met by `Nc1nc(-c2cc(Br)cc3c2OCC3)c2nc[nH]c2n1` ?
Response: false (0)

Query: Criterion: ΔTm at 10 µM strictly below 1 °C. Is it met by `COc1ccc(Br)cc1-c1nc(N)nc2[nH]cnc12` ?
Response: false (0)

Query: Criterion: ΔTm at 10 µM strictly below 1 °C. Is it met by `Cn1cnc2c(-c3cccc(OCc4ccc(Cl)cc4)c3)nc(N)nc21` ?
Response: true (1)

Query: Criterion: ΔTm at 10 µM strictly below 1 °C. Is it met by `COc1cccc(OCC(C)C)c1-c1nc(N)nc2[nH]cnc12` ?
Response: false (0)

Query: Criterion: ΔTm at 10 µM strictly below 1 °C. Is it met by `COc1ccc(F)cc1-c1nc(N)nc2[nH]cnc12` ?
Response: true (1)

====

Target: BRD3(1) (Homo sapiens)
Construct: Fragments were tested in a thermal shift assay against bromodomains of the BET subfamily
Experiment: Isothermal titration calorimetry, BRD3(1)
Conditions: ITC, 50 mM HEPES pH 7.5, 150 mM NaCl, 15 °C, reverse titration, triplicate
Result Type: Kd (nM)
Please give a number only; it is taken to be in nM.

Query: Sample COc1ccc(Br)cc1-c1nc(N)nc2[nH]cnc12 [Compound 7d] — what was its Kd?
Response: 2040

====

Target: BRD9 (Homo sapiens)
Construct: made in house
Sequence (Q9H8M2 136-240 limits assumed): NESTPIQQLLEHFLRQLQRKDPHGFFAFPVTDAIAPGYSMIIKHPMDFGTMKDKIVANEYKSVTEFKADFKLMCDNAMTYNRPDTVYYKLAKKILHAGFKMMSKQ
Assay: Isothermal titration calorimetry, BRD9
Assay type: binding
Conditions: ITC, 15 °C
Result Type: TΔS

Query: // fetch BRD9 (Homo sapiens) TΔS for `COc1ccc(Cl)cc1-c1nc(O)nc2[nH]cnc12`
Response: 1.40 kcal/mol

====

Molecular target: PCAF (Homo sapiens)
Construct: representative BRDs from other structural subfamilies (family I, PCAF); made in house
Sequence (Q92831 723-827 limits assumed): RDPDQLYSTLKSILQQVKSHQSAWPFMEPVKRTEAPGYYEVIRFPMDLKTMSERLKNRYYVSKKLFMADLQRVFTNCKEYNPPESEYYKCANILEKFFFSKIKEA
Experiment: Protein stability (thermal) shift assay, PCAF
Type: binding
Details: compound 10 μM, protein 2 μM; average of triplicate
Method: Thermal melting experiments were carried out using an Mx3005p real time PCR machine (Stratagene). Proteins were buffered in 10 mM HEPES, pH 7.5, 500 mM NaCl and assayed in a 96-well plate at a final concentration of 2 μM in 20 μL volume. […] SYPRO Orange (Molecular Probes) was added as a fluorescence probe at a dilution of 1 in 1000. […] The temperature was raised with a step of 3 °C per minute from 25 to 96 °C, and fluorescence readings were taken at each interval. […]
Result Type: ΔTm at 10 µM (°C)
Please give a number only; it is taken to be in °C.

Query: // fetch PCAF (Homo sapiens) ΔTm at 10 µM for `Nc1nc(-c2cccc(OCc3ccc(Cl)cc3)c2)c2nc[nH]c2n1`
Response: 0.7

Query: // fetch PCAF (Homo sapiens) ΔTm at 10 µM for `Cn1cnc2c(-c3cccc(OCc4ccc(Cl)cc4)c3)nc(N)nc21`
Response: 0.143

Query: // fetch PCAF (Homo sapiens) ΔTm at 10 µM for `CCOc1ccc(Br)cc1-c1nc(N)nc2[nH]cnc12`
Response: -1.1

Query: // fetch PCAF (Homo sapiens) ΔTm at 10 µM for `COc1cccc(OC(C)C)c1-c1nc(N)nc2[nH]cnc12`
Response: -0.261

Query: // fetch PCAF (Homo sapiens) ΔTm at 10 µM for `COc1ccc(F)cc1-c1ncnc2[nH]c(C)nc12`
Response: -1.5

Query: // fetch PCAF (Homo sapiens) ΔTm at 10 µM for `COc1ccc(F)cc1-c1nc(O)nc2[nH]cnc12`
Response: 0.535

Query: // fetch PCAF (Homo sapiens) ΔTm at 10 µM for `COc1ccc(-c2nc(N)nc3c2ncn3C)cc1`
Response: -1.1

Query: // fetch PCAF (Homo sapiens) ΔTm at 10 µM for `COc1cccc(OC)c1-c1nc(N)nc2[nH]cnc12`
Response: -0.4

Query: // fetch PCAF (Homo sapiens) ΔTm at 10 µM for `COc1cc(COc2ccc(-c3nc(N)nc4[nH]cnc34)cc2Cl)cc(OC)c1`
Response: 1.6

Query: // fetch PCAF (Homo sapiens) ΔTm at 10 µM for `CCCCOc1cc(Br)cc(-c2nc(N)nc3c2ncn3C)c1`
Response: 0.9

====

Target: BRD3(2) (Homo sapiens, UniProt Q15059)
Construct: made in house
Sequence (Q15059 306-415 limits assumed): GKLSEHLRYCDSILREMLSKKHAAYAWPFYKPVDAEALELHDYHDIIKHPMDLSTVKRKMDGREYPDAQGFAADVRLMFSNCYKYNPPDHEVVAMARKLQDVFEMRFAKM
Assay: Protein stability (thermal) shift assay, BRD3(2)
Format: binding
Conditions: compound 10 μM, protein 2 μM; average of triplicate
Result Type: ΔTm at 10 µM (°C)
Please give a number only; it is taken to be in °C.

Query: Sample `Nc1nc(-c2ccc(OCc3ccccc3)c(Cl)c2)c2nc[nH]c2n1` — what was its ΔTm at 10 µM?
Response: -0.092

Query: Sample `Nc1nc(-c2ccccc2)c2nc[nH]c2n1` — what was its ΔTm at 10 µM?
Response: 0.6

Query: Sample `COc1ccc(Br)cc1-c1nc(N)nc2c1ncn2CC(C)=O` — what was its ΔTm at 10 µM?
Response: 0.535

Query: Sample `COc1cccc(OC)c1-c1nc(N)nc2[nH]cnc12` — what was its ΔTm at 10 µM?
Response: 1.3

Query: Sample `COc1ccc(F)cc1-c1ncnc2[nH]c(C)nc12` — what was its ΔTm at 10 µM?
Response: 0.341

Query: Sample `COc1ccc(Cl)cc1-c1nc(N)nc2[nH]cnc12` — what was its ΔTm at 10 µM?
Response: 1.3

Query: Sample `COc1ccc(-c2nc(N)nc3c2ncn3C)cc1` — what was its ΔTm at 10 µM?
Response: -0.7

Query: Sample `COc1ccccc1-c1nc(N)nc2[nH]cnc12` — what was its ΔTm at 10 µM?
Response: 2.5

Query: Sample `COc1ccc(-c2nc(N)nc3[nH]cnc23)cc1` — what was its ΔTm at 10 µM?
Response: 0.4

====

Tested on: human bromodomains (panel)
Experiment: Protein stability (thermal) shift assay, whole panel of human bromodomains
Format: binding
Conditions: 10 μM compound
Result Type: binding to the bromodomain panel in the ΔTm assay (in words)

• Cn1cnc2c(-c3cccc(OCc4ccc(Cl)cc4)c3)nc(N)nc21 = very weak or no binding
• COc1ccc(-c2nc(N)nc3c2ncn3C)cc1 = very weak or no binding
• Cn1cnc2c(-c3ccc(Oc4ccccc4)cc3)nc(N)nc21 = very weak or no binding
